Target: EsaR (Pantoea stewartii subsp. stewartii)
Construct: expressed in transfected cells; host or cells: E. coli JLD271 (K12 ΔsdiA), arabinose-induced pJN105-esaR
Sequence (P54293 whole entry): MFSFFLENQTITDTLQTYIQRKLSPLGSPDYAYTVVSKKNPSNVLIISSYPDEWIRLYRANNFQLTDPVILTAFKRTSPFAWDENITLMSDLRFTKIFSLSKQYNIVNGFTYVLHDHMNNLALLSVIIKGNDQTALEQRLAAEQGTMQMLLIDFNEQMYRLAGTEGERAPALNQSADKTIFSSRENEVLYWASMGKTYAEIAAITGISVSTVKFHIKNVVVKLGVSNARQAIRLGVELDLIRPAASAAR
Test: cell-based
Settings: 3.5 h, read-out: EsaR-repressed (pesaR) antagonism
Protocol: EsaR transcriptional activation and repression were examined using E. coli and P. stewartii reporters (strains and plasmids listed in Table S1; see Methods section for assay details). […] Overnight cultures were diluted 1:10 in LB medium with appropriate antibiotics and grown at 37 °C (200 rpm) to an OD600 of 0.22–0.27 before induction with 4 mg mL^–1 arabinose. OD600 was measured by placing 200 μL of culture into a 96-well plate and reading optical density using the BioTek Synergy 2 plate reader. […]
measured.property: inhibition at 100 µM (%)

            compound_structure_string     measured_property  data_value
0   O=C(CCc1ccc(Br)cc1)N[C@H]1CCOC1=O  inhibition at 100 µM         -36
1        O=C(Cc1ccccc1)N[C@H]1CCOC1=O  inhibition at 100 µM         -61
2  O=C(Cc1cccc2ccccc12)N[C@H]1CCOC1=O  inhibition at 100 µM         -11
3       O=C(Cc1ccccc1F)N[C@H]1CCOC1=O  inhibition at 100 µM          15
